- System: 521955-158-R2-J5-PDC complex spheroid growth, % test/control
- MEASUREMENT PROTOCOL: Anticancer human tumor 521955-158-R2-J5-PDC patient-derived pancreatic carcinoma cell line growth inhibition [Asc]
- MEASUREMENT CONDITIONS: second compound 3 µM; first compound 3.16 µM; stronger effect = lower value
MEASUREMENT LABEL: viability, T/C (%)

| COMPOUND | REPORTED |
| --- | --- |
| C=C(F)C(=O)N1CCN(c2nc(OCC3CCCN3C)nc3c2CCN(c2cccc4cccc(Cl)c24)C3)CC1CC#N (centres undefined) + CCN1C(C(=O)NC23CCC(C(=O)O)(CC2)CC3)C(c2cccc(Cl)c2F)C2(C(=O)Nc3cc(Cl)ccc32)C12CCCCC2 | 188 |
| C=CC(=O)N1CCN(c2nc(=O)n(-c3c(C)ccnc3C(C)C)c3nc(-c4c(O)cccc4F)c(F)cc23)C(C)C1 (centres undefined) + CCN1C(C(=O)NC23CCC(C(=O)O)(CC2)CC3)C(c2cccc(Cl)c2F)C2(C(=O)Nc3cc(Cl)ccc32)C12CCCCC2 | 120 |
| O=C(c1cc(Cc2n[nH]c(=O)c3ccccc23)ccc1F)N1CCN(C(=O)C2CC2)CC1 + CCN1C(C(=O)NC23CCC(C(=O)O)(CC2)CC3)C(c2cccc(Cl)c2F)C2(C(=O)Nc3cc(Cl)ccc32)C12CCCCC2 | 106 |
| C#Cc1c(F)ccc2cc(O)cc(-c3ncc4c(N5CC6CCC(C5)N6)nc(OCC56CCCN5CC(F)C6)nc4c3F)c12 (centres undefined) + CCN1C(C(=O)NC23CCC(C(=O)O)(CC2)CC3)C(c2cccc(Cl)c2F)C2(C(=O)Nc3cc(Cl)ccc32)C12CCCCC2 | 55.1 |

* * *

- Test system: 521955-158-R2-J5-PDC complex spheroid growth, % test/control
- MEASUREMENT PROTOCOL: Anticancer human tumor 521955-158-R2-J5-PDC cell line growth inhibition [Asc];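 further: spheroids exposed to agents for 7 days before readout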
- MEASUREMENT CONDITIONS: curve of first compound; second compound 1 µM
pIC50: −log10 of the molar value.
Recorded pIC50 values for a group of molecules are listed next.

| MOLECULE | SYSTEM UNDER TEST | pIC50 |
| --- | --- | --- |
| NC1CCC(NC2CC2c2ccccc2)CC1 (stereo not drawn) + Cc1c(S(C)(=O)=O)c(-c2cc(F)cc(N3CCN(c4ccc(NS(=O)(=O)c5ccc(NC(CCN6CCC(C(=O)OCCCP(=O)(O)O)CC6)CSc6ccccc6)c(S(=O)(=O)C(F)(F)F)c5)cc4)CC3)c2)c(-c2ccc(Cl)cc2)n1C(C)C | 521955-158-R2-J5-PDC complex spheroid growth, % test/control | > 9.50 |
| NC1CCC(NC2CC2c2ccccc2)CC1 (stereo not drawn) + CNC(C)C(=O)NC1CN(S(=O)(=O)c2cccc(S(=O)(=O)N3CCC4CCC(C(=O)NC(c5ccccc5)c5ccccc5)N4C(=O)C(NC(=O)C(C)NC)C3)c2)CCC2CCC(C(=O)NC(c3ccccc3)c3ccccc3)N2C1=O | 521955-158-R2-J5-PDC complex spheroid growth, % test/control | < 7.00 |
| COc1c(OCCCN2CCOCC2)ccc2c3n(c(=NC(=O)c4cnc(N)nc4)nc12)CCN3 + CNC(C)C(=O)NC1CN(S(=O)(=O)c2cccc(S(=O)(=O)N3CCC4CCC(C(=O)NC(c5ccccc5)c5ccccc5)N4C(=O)C(NC(=O)C(C)NC)C3)c2)CCC2CCC(C(=O)NC(c3ccccc3)c3ccccc3)N2C1=O | 521955-158-R2-J5-PDC complex spheroid growth, % test/control | 7.66 |
| Cc1nc(N2CCC3(CC2)COC(C)C3N)c(CO)nc1Sc1ccnc(N)c1Cl (stereo not drawn) + CNC(C)C(=O)NC1CN(S(=O)(=O)c2cccc(S(=O)(=O)N3CCC4CCC(C(=O)NC(c5ccccc5)c5ccccc5)N4C(=O)C(NC(=O)C(C)NC)C3)c2)CCC2CCC(C(=O)NC(c3ccccc3)c3ccccc3)N2C1=O | 521955-158-R2-J5-PDC complex spheroid growth, % test/control | 5.83 |
| O=C(c1cc(Cc2n[nH]c(=O)c3ccccc23)ccc1F)N1CCN(C(=O)C2CC2)CC1 + CNC(C)C(=O)NC1CN(S(=O)(=O)c2cccc(S(=O)(=O)N3CCC4CCC(C(=O)NC(c5ccccc5)c5ccccc5)N4C(=O)C(NC(=O)C(C)NC)C3)c2)CCC2CCC(C(=O)NC(c3ccccc3)c3ccccc3)N2C1=O | 521955-158-R2-J5-PDC complex spheroid growth, % test/control | < 5.00 |
| Cn1ncnc1[C@H]1c2n[nH]c(=O)c3cc(F)cc(c23)N[C@@H]1c1ccc(F)cc1 + Cc1c(S(C)(=O)=O)c(-c2cc(F)cc(N3CCN(c4ccc(NS(=O)(=O)c5ccc(NC(CCN6CCC(C(=O)OCCCP(=O)(O)O)CC6)CSc6ccccc6)c(S(=O)(=O)C(F)(F)F)c5)cc4)CC3)c2)c(-c2ccc(Cl)cc2)n1C(C)C | 521955-158-R2-J5-PDC complex spheroid growth, % test/control | 7.27 |
| O=C(c1ccc(F)c(F)c1Nc1ccc(I)cc1F)N1CC(O)([C@@H]2CCCCN2)C1 + CNC(C)C(=O)NC1CN(S(=O)(=O)c2cccc(S(=O)(=O)N3CCC4CCC(C(=O)NC(c5ccccc5)c5ccccc5)N4C(=O)C(NC(=O)C(C)NC)C3)c2)CCC2CCC(C(=O)NC(c3ccccc3)c3ccccc3)N2C1=O | 521955-158-R2-J5-PDC complex spheroid growth, % test/control | 7.80 |
| CCN1C(C(=O)NC23CCC(C(=O)O)(CC2)CC3)C(c2cccc(Cl)c2F)C2(C(=O)Nc3cc(Cl)ccc32)C12CCCCC2 (stereo not drawn) + Cc1c(S(C)(=O)=O)c(-c2cc(F)cc(N3CCN(c4ccc(NS(=O)(=O)c5ccc(NC(CCN6CCC(C(=O)OCCCP(=O)(O)O)CC6)CSc6ccccc6)c(S(=O)(=O)C(F)(F)F)c5)cc4)CC3)c2)c(-c2ccc(Cl)cc2)n1C(C)C | 521955-158-R2-J5-PDC complex spheroid growth, % test/control | < 5.52 |
| CCN1C(C(=O)NC23CCC(C(=O)O)(CC2)CC3)C(c2cccc(Cl)c2F)C2(C(=O)Nc3cc(Cl)ccc32)C12CCCCC2 (stereo not drawn) + CNC(C)C(=O)NC1CN(S(=O)(=O)c2cccc(S(=O)(=O)N3CCC4CCC(C(=O)NC(c5ccccc5)c5ccccc5)N4C(=O)C(NC(=O)C(C)NC)C3)c2)CCC2CCC(C(=O)NC(c3ccccc3)c3ccccc3)N2C1=O | 521955-158-R2-J5-PDC complex spheroid growth, % test/control | < 5.52 |
| C#Cc1c(F)ccc2cc(O)cc(-c3ncc4c(N5CC6CCC(C5)N6)nc(OCC56CCCN5CC(F)C6)nc4c3F)c12 (stereo not drawn) + Cc1c(S(C)(=O)=O)c(-c2cc(F)cc(N3CCN(c4ccc(NS(=O)(=O)c5ccc(NC(CCN6CCC(C(=O)OCCCP(=O)(O)O)CC6)CSc6ccccc6)c(S(=O)(=O)C(F)(F)F)c5)cc4)CC3)c2)c(-c2ccc(Cl)cc2)n1C(C)C | 521955-158-R2-J5-PDC complex spheroid growth, % test/control | > 7.50 |
| CCN1CCN(Cc2ccc(Nc3ncc(F)c(-c4cc(F)c5nc(C)n(C(C)C)c5c4)n3)nc2)CC1 + CNC(C)C(=O)NC1CN(S(=O)(=O)c2cccc(S(=O)(=O)N3CCC4CCC(C(=O)NC(c5ccccc5)c5ccccc5)N4C(=O)C(NC(=O)C(C)NC)C3)c2)CCC2CCC(C(=O)NC(c3ccccc3)c3ccccc3)N2C1=O | 521955-158-R2-J5-PDC complex spheroid growth, % test/control | < 6.00 |
| C#Cc1c(F)ccc2cc(O)cc(-c3ncc4c(N5CC6CCC(C5)N6)nc(OCC56CCCN5CC(F)C6)nc4c3F)c12 (stereo not drawn) + CNC(C)C(=O)NC1CN(S(=O)(=O)c2cccc(S(=O)(=O)N3CCC4CCC(C(=O)NC(c5ccccc5)c5ccccc5)N4C(=O)C(NC(=O)C(C)NC)C3)c2)CCC2CCC(C(=O)NC(c3ccccc3)c3ccccc3)N2C1=O | 521955-158-R2-J5-PDC complex spheroid growth, % test/control | > 7.50 |
| C=CC(=O)N1CCN(c2nc(=O)n(-c3c(C)ccnc3C(C)C)c3nc(-c4c(O)cccc4F)c(F)cc23)C(C)C1 (stereo not drawn) + CNC(C)C(=O)NC1CN(S(=O)(=O)c2cccc(S(=O)(=O)N3CCC4CCC(C(=O)NC(c5ccccc5)c5ccccc5)N4C(=O)C(NC(=O)C(C)NC)C3)c2)CCC2CCC(C(=O)NC(c3ccccc3)c3ccccc3)N2C1=O | 521955-158-R2-J5-PDC complex spheroid growth, % test/control | < 5.00 |
